Data provenance: patent US11708344B2

Listed below: Clearance of Human microsome values for each entry.
# ASSAY_PROTOCOL: Human microsome stability assay
# Format: in vitro ADME
# RUN_PARAMETERS: human liver microsomes, 1 μM test compound, 0.5 mg/mL microsomal protein, 37° C., pH 7.4, 0-30 minutes

- MOLECULE: "COc1cc(OCCO[C@H]2C[C@@H](C(=O)O)C2)c(-c2cc(=O)c3cccc(Cl)c3o2)cc1Br"
  Clearance of Human microsome [mL/min/kg]: 8.52
- MOLECULE: "CS(=O)(=O)NC(=O)[C@H]1C[C@@H](OCCOc2cc(C(F)(F)F)ccc2-c2cc(=O)c3cccc(Cl)c3o2)C1"
  Clearance of Human microsome [mL/min/kg]: 8.68
- MOLECULE: "O=c1cc(-c2ccc(OC(F)(F)F)cc2OCCO[C@H]2C[C@@H](C(=O)O)C2)oc2c(Cl)cccc12"
  Clearance of Human microsome [mL/min/kg]: 9.08
- MOLECULE: "Cc1cc(-c2cc(=O)c3cccc(Cl)c3o2)c(O[C@H]2C[C@@H](C(=O)O)N(S(=O)(=O)c3ccccc3)C2)cc1Cl"
  Clearance of Human microsome [mL/min/kg]: 6.15
- MOLECULE: "COc1ccc(OCCOC2CC(C(=O)O)C2)c(-c2cc(=O)c3cccc(Cl)c3o2)c1 (stereo not drawn)"
  Clearance of Human microsome [mL/min/kg]: 6.15
- MOLECULE: "NS(=O)(=O)CCCOc1cc(C(F)(F)F)ccc1-c1cc(=O)c2cccc(Cl)c2o1"
  Clearance of Human microsome [mL/min/kg]: 8.89
- MOLECULE: "O=C(O)C1CC(OCCOc2ccccc2-c2cc(=O)c3cccc(Br)c3o2)C1 (stereo in doubt)"
  Clearance of Human microsome [mL/min/kg]: 6.15
- MOLECULE: "O=C(O)C1CC(Oc2cc(C(F)(F)F)ccc2-c2cc(=O)c3cccc(Cl)c3o2)C1 (stereo not drawn)"
  Clearance of Human microsome [mL/min/kg]: 6.15
- MOLECULE: "COc1ccc(O[C@H]2C[C@H](C(=O)O)C2)c(-c2cc(=O)c3cccc(Cl)c3o2)c1"
  Clearance of Human microsome [mL/min/kg]: 6.15
- MOLECULE: "Cc1cc(-c2cc(=O)c3cccc(Cl)c3o2)c(OCCCC(=O)O)cc1Br"
  Clearance of Human microsome [mL/min/kg]: 6.15
- MOLECULE: "CS(=O)(=O)NC(=O)[C@H]1C[C@H](Oc2cc(Br)ccc2-c2cc(=O)c3cccc(Cl)c3o2)C1"
  Clearance of Human microsome [mL/min/kg]: 6.15
- MOLECULE: "O=C(O)C1CC(OCCCOc2cc(C(F)(F)F)ccc2-c2cc(=O)c3cccc(Cl)c3o2)C1 (stereo not drawn)"
  Clearance of Human microsome [mL/min/kg]: 6.15
- MOLECULE: "O=C(O)CCOc1cc(OC(F)(F)F)ccc1-c1cc(=O)c2cccc(Cl)c2o1"
  Clearance of Human microsome [mL/min/kg]: 6.57
- MOLECULE: "O=C(O)COCCOc1cc(OC(F)(F)F)ccc1-c1cc(=O)c2cccc(Cl)c2o1"
  Clearance of Human microsome [mL/min/kg]: 6.15
- MOLECULE: "COc1cc(-c2cc(=O)c3cccc(Cl)c3o2)c(OCCO[C@H]2C[C@@H](C(=O)O)C2)cc1Br"
  Clearance of Human microsome [mL/min/kg]: 7.85
